experiment: Effect of concentration on the stability of the solution (purity over time); settings: 5 wt %; in water at 25° C.
Listed next: entries and their corresponding Purity at Day 28.
Just the number in %, nothing appended.

[
  {
    "compound": "CCN(CC)CCOC(=O)Cc1c(C)n(C(=O)c2ccc(Cl)cc2)c2ccc(OC)cc12.Cl",
    "valueMeasured": 96.5
  },
  {
    "compound": "CCN(CC)CCOC(=O)CCc1ccc2cc(OC)ccc2c1.Cl",
    "valueMeasured": 96.3
  },
  {
    "compound": "CCN(CC)CCOC(=O)CCc1nc(-c2ccccc2)c(-c2ccccc2)o1.Cl",
    "valueMeasured": 95.0
  },
  {
    "compound": "CCN(CC)CCOC(=O)CC1=C(C)C(=Cc2ccc([S+](C)[O-])cc2)c2ccc(F)cc21.Cl (stereo not drawn)",
    "valueMeasured": 95.4
  }
]

Kindly note the recorded Purity at Day 28 for CCN(CC)CCOC(=O)[C@H](C)c1ccc2cc(OC)ccc2c1.Cl (racemic) , which is 97.5

Kindly note the recorded Purity at Day 28 for "CCN(CC)CCOC(=O)Cc1sc(-c2ccccc2)nc1-c1ccc(Cl)cc1.Cl" , which is 95.4

* * *

experiment: Effect of temperature (and pH) on the stability of the solution (purity); assay type: physicochemical; conditions: 7% solution in water, pH 1.0, day 21, 25° C.
Listed next: entries and their corresponding Purity(%) at day 21 (25° C.).

[
  {
    "compound": "CCN(CC)CCOC(=O)C(C)c1ccc(-c2ccccc2)c(F)c1.Cl (racemic)",
    "reportedProperty": "Purity(%) at day 21 (25° C.)",
    "valueMeasured": "72.0 ± 0.3%"
  },
  {
    "compound": "CCN(CC)CCOC(=O)Cc1ccc(C(=O)c2ccc(C)cc2)n1C.Cl",
    "reportedProperty": "Purity(%) at day 21 (25° C.)",
    "valueMeasured": "65.5 ± 0.3%"
  }
]

Then this compound:
Kindly note the recorded Purity(%) at day 21 (25° C.) for "CCN(CC)CCOC(=O)CCc1ccc2cc(OC)ccc2c1.Cl" , which is 69.1 ± 0.3%

* * *

assay: Effect of concentration on the stability of the solution (purity over time); settings: 8 wt %; in water at 25° C.
reportedProperty: Purity at Day 21 (%)
Just the number in %, nothing appended.

Examples with answers:
[
  {
    "compound": "CCN(CC)CCOC(=O)CC1=C(C)C(=Cc2ccc([S+](C)[O-])cc2)c2ccc(F)cc21.Cl (stereo not drawn)",
    "reportedProperty": "Purity at Day 21",
    "valueMeasured": 96.8
  },
  {
    "compound": "CCN(CC)CCOC(=O)[C@H](C)c1ccc2cc(OC)ccc2c1.Cl (racemic)",
    "reportedProperty": "Purity at Day 21",
    "valueMeasured": 97.5
  }
]

Then this compound:
Kindly note the recorded Purity at Day 21 for "CCN(CC)CCOC(=O)CCc1nc(-c2ccccc2)c(-c2ccccc2)o1.Cl" , which is 97.7

* * *

Listed next: entries and their corresponding Purity at Day 21.
experiment: Effect of concentration on the stability of the solution (purity over time); conditions: 7 wt %; in water at 25° C.
Just the number in %, nothing appended.

Examples with answers:
[
  {
    "compound": "CCN(CC)CCOC(=O)Cc1ccc(C(=O)c2ccc(C)cc2)n1C.Cl",
    "valueMeasured": 96.7
  },
  {
    "compound": "CCN(CC)CCOC(=O)CCc1ccc2cc(OC)ccc2c1.Cl",
    "valueMeasured": 97.8
  }
]

Then this compound:
Kindly note the recorded Purity at Day 21 for CCN(CC)CCOC(=O)CC1=C(C)C(=Cc2ccc([S+](C)[O-])cc2)c2ccc(F)cc21.Cl (stereo not drawn) , which is 96.6

* * *

assay: Effect of temperature (and pH) on the stability of the solution (purity); format: physicochemical; settings: 7% solution in water, pH 4.6, day 21, 60° C.
reportedProperty: Purity (%) at day 21 (60° C.)
Just the number in %, nothing appended.

[
  {
    "compoundStructureString": "CCN(CC)CCOC(=O)COc1nn(Cc2ccccc2)c2ccccc12.Cl",
    "reportedProperty": "Purity (%) at day 21 (60° C.)",
    "valueMeasured": 16.5
  }
]

Kindly note the recorded Purity (%) at day 21 (60° C.) for "CCN(CC)CCOC(=O)Cc1ccc(C(=O)c2ccc(C)cc2)n1C.Cl" , which is 13.5

Kindly note the recorded Purity (%) at day 21 (60° C.) for "CCN(CC)CCOC(=O)CCc1nc(-c2ccccc2)c(-c2ccccc2)o1.Cl" , which is 15.5

Kindly note the recorded Purity (%) at day 21 (60° C.) for "CCN(CC)CCOC(=O)COC(=O)Cc1c(C)n(C(=O)c2ccc(Cl)cc2)c2ccc(OC)cc12.Cl" , which is 14.8

* * *

experiment: Effect of temperature (and pH) on the stability of the solution (purity); format: physicochemical; conditions: 7% solution in water, pH 6.0, day 21, 40° C.
reportedProperty: Purity(%) at day 21 (40° C.)
Just the number in %, nothing appended.

[
  {
    "compound": "CCN(CC)CCOC(=O)COC(=O)Cc1c(C)n(C(=O)c2ccc(Cl)cc2)c2ccc(OC)cc12.Cl",
    "Purity(%) at day 21 (40° C.)": 28.8
  }
]

Kindly note the recorded Purity(%) at day 21 (40° C.) for CCN(CC)CCOC(=O)C(C)c1ccc(-c2ccccc2)c(F)c1.Cl (racemic) , which is 29.7

Kindly note the recorded Purity(%) at day 21 (40° C.) for "CCN(CC)CCOC(=O)COc1nn(Cc2ccccc2)c2ccccc12.Cl" , which is 18.5

Kindly note the recorded Purity(%) at day 21 (40° C.) for "CCN(CC)CCOC(=O)CCc1ccc2cc(OC)ccc2c1.Cl" , which is 28.6

* * *

Listed next: entries and their corresponding Purity(%) at Day 14.
assay: Effect of concentration on the stability of the solution (purity over time); conditions: 0.01 wt % in 50% ethanol, 25° C.
Just the number in %, nothing appended.

Examples with answers:
[
  {
    "compound": "CC(C)OC(=O)C(N)Cc1ccccc1 (stereo not drawn) [Isopropyl 2-amino-3-phenylpropanoate, reference compound]",
    "readoutUnits": "%",
    "Purity(%) at Day 14": 96.5
  },
  {
    "compound": "CCOC(=O)c1ccccc1 [Ethyl benzoate, reference compound]",
    "readoutUnits": "%",
    "Purity(%) at Day 14": 96.1
  }
]

Then this compound:
Kindly note the recorded Purity(%) at Day 14 for CC(C)(C)OC(=O)c1ccccc1 [t-Butyl benzoate, reference compound] , which is 0.0

* * *

experiment: Effect of temperature (and pH) on the stability of the solution (purity); type: physicochemical; conditions: 7% solution in water, pH 2.0, day 21, 25° C.
Listed next: entries and their corresponding Purity(%) at day 21 (25° C.).
Just the number in %, nothing appended.

Examples with answers:
[
  {
    "compound": "CCN(CC)CCOC(=O)COC(=O)Cc1c(C)n(C(=O)c2ccc(Cl)cc2)c2ccc(OC)cc12.Cl",
    "readoutUnits": "%",
    "valueMeasured": 82.2
  },
  {
    "compound": "CCN(CC)CCOC(=O)CC1=C(C)C(=Cc2ccc([S+](C)[O-])cc2)c2ccc(F)cc21.Cl (stereo not shown)",
    "readoutUnits": "%",
    "valueMeasured": 81.1
  },
  {
    "compound": "CCN(CC)CCOC(=O)COc1nn(Cc2ccccc2)c2ccccc12.Cl",
    "readoutUnits": "%",
    "valueMeasured": 77.8
  }
]

Then this compound:
Kindly note the recorded Purity(%) at day 21 (25° C.) for "CCN(CC)CCOC(=O)Cc1ccc(C(=O)c2ccc(C)cc2)n1C.Cl" , which is 78.1

* * *

Listed next: entries and their corresponding Purity at hr 0.
assay: Effect of concentration on the stability of the solution (purity over time); conditions: 5 wt %; in water at 25° C.
Just the number in %, nothing appended.

[
  {
    "compound": "CCN(CC)CCOC(=O)CCc1ccc2cc(OC)ccc2c1.Cl",
    "Purity at hr 0 (%)": 98.4
  },
  {
    "compound": "CCN(CC)CCOC(=O)CC1=C(C)C(=Cc2ccc([S+](C)[O-])cc2)c2ccc(F)cc21.Cl (stereo not drawn)",
    "Purity at hr 0 (%)": 97.5
  }
]

Then this compound:
Kindly note the recorded Purity at hr 0 for "CCN(CC)CCOC(=O)Cc1ccc(C(=O)c2ccc(C)cc2)n1C.Cl" , which is 97.9

* * *

assay: Effect of concentration on the stability of the solution (purity over time); settings: 3 wt %; in water at 25° C.
reportedProperty: Purity at Day 14 (%)
Just the number in %, nothing appended.

[
  {
    "compound": "CCN(CC)CCOC(=O)Cc1sc(-c2ccccc2)nc1-c1ccc(Cl)cc1.Cl",
    "valueMeasured": 94.8
  },
  {
    "compound": "CCN(CC)CCOC(=O)C(C)c1ccc2oc(-c3ccc(Cl)cc3)nc2c1.Cl (stereo not drawn)",
    "valueMeasured": 95.7
  }
]

Kindly note the recorded Purity at Day 14 for "CCN(CC)CCOC(=O)CCc1nc(-c2ccccc2)c(-c2ccccc2)o1.Cl" , which is 92.5
